Cited source: ChEMBL document CHEMBL1151643

CC50 at 3 h overview
- experiment-summary: Phytotoxicity against Cucumis sativus protoplast after 3 hrs by fluorescein diacetate staining
- Assay type: organism-based
- study-conditions: Cucumis sativus protoplasts, read-out: LD50

compound: CC1CCC/C=C/C(=O)c2c(O)cc(O)cc2CC(=O)O1 (configuration not stated)
CC50 at 3 h: 15 µg/mL

compound: CC1CCCCCC(=O)c2c(O)cc(O)cc2CC(=O)O1 (configuration not stated) [CURVULARIN]
CC50 at 3 h: 21 µg/mL
